Form field: total protein half-life in vivo (one value per entry).
experiment: total protein half-life in vivo (active degradation + dilution); higher = more stable protein; settings: wild type E. coli NCM3722; growth: C-lim chemostat; doubling time 3 h
Reply numerically in h, unit not repeated.

See these solved cases before continuing.
>  <RECORD_SEQUENCE>
MSQPLNADQELVSDVVACQLVIKQILDVLDVIAPVEVREKMSSQLKNIDFTNHPAAADPVTMRAIQKAIALIELKFTPQGESH [P0AD10]

>  <total protein half-life in vivo (h)>
3.21

$$$$
>  <RECORD_SEQUENCE>
MATLKDIAIEAGVSLATVSRVLNDDPTLNVKEETKHRILEIAEKLEYKTSSARKLQTGAVNQHHILAIYSYQQELEINDPYYLAIRHGIETQCEKLGIELTNCYEHSGLPDIKNVTGILIVGKPTPALRAAASALTDNICFIDFHEPGSGYDAVDIDLARISKEIIDFYINQGVNRIGFIGGEDEPGKADIREVAFAEYGRLKQVVREEDIWRGGFSSSSGYELAKQMLAREDYPKALFVASDSIAIGVLRAIHERGLNIPQDISLISVNDIPTARFTFPPLSTVRIHSEMMGSQGVNLVYEKARDGRALPLLVFVPSKLKLRGTTR

>  <total protein half-life in vivo (h)>
2.89

$$$$
>  <RECORD_SEQUENCE>
MKAFNKLFSLVVASVLVFSLAGCGDKEESKKFSANLNGTEIAITYVYKGDKVLKQSSETKIQFASIGATTKEDAAKTLEPLSAKYKNIAGVEEKLTYTDTYAQENVTIDMEKVDFKALQGISGINVSAEDAKKGITMAQMELVMKAAGFKEVK

>  <total protein half-life in vivo (h)>
2.68

$$$$

Here is the next item to consider.
What value of total protein half-life in vivo has been recorded for this entry: MKTPLVTREGYEKLKQELNYLWREERPEVTKKVTWAASLGDRSENADYQYNKKRLREIDRRVRYLTKCLENLKIVDYSPQQEGKVFFGAWVEIENDDGVTHRFRIVGYDEIFGRKDYISIDSPMARALLKKEVGDLAVVNTPAGEASWYVNAIEYVKP 2.83

---

test: total protein half-life in vivo (active degradation + dilution); higher = more stable protein; settings: wild type E. coli NCM3722; growth: N-lim chemostat; doubling time 6 h
OBSERVED_PROPERTY: total protein half-life in vivo
Give the number first and the unit second.

>  <RECORD_SEQUENCE>
MNLHEYQAKQLFARYGLPAPVGYACTTPREAEEAASKIGAGPWVVKCQVHAGGRGKAGGVKVVNSKEDIRAFAENWLGKRLVTYQTDANGQPVNQILVEAATDIAKELYLGAVVDRSSRRVVFMASTEGGVEIEKVAEETPHLIHKVALDPLTGPMPYQGRELAFKLGLEGKLVQQFTKIFMGLATIFLERDLALIEINPLVITKQGDLICLDGKLGADGNALFRQPDLREMRDQSQEDPREAQAAQWELNYVALDGNIGCMVNGAGLAMGTMDIVKLHGGEPANFLDVGGGATKERVTEAFKIILSDDKVKAVLVNIFGGIVRCDLIADGIIGAVAEVGVNVPVVVRLEGNNAELGAKKLADSGLNIIAAKGLTDAAQQVVAAVEGK [P0A836]

>  <total protein half-life in vivo>
4.46 h

$$$$

What value of total protein half-life in vivo has been recorded for this entry: MFDIGFSELLLVFIIGLVVLGPQRLPVAVKTVAGWIRALRSLATTVQNELTQELKLQEFQDSLKKVEKASLTNLTPELKASMDELRQAAESMKRSYVANDPEKASDEAHTIHNPVVKDNEAAHEGVTPAAAQTQASSPEQKPETTPEPVVKPAADAEPKTAAPSPSSSDKP 4.65 h

What value of total protein half-life in vivo has been recorded for this entry: MYTLNWQPPYDWSWMLGFLAARAVSSVETVADSYYARSLAVGEYRGVVTAIPDIARHTLHINLSAGLEPVAAECLAKMSRLFDLQCNPQIVNGALGRLGAARPGLRLPGCVDAFEQGVRAILGQLVSVAMAAKLTARVAQLYGERLDDFPEYICFPTPQRLAAADPQALKALGMPLKRAEALIHLANAALEGTLPMTIPGDVEQAMKTLQTFPGIGRWTANYFALRGWQAKDVFLPDDYLIKQRFPGMTPAQIRRYAERWKPWRSYALLHIWYTEGWQPDEA 1.34 h

What value of total protein half-life in vivo has been recorded for this entry: MSRRAGTPTAKKVTQLVNVEEHVEGFRQVREAHRRELIDDYVELISDLIREVGEARQVDMAARLGVSQPTVAKMLKRLATMGLIEMIPWRGVFLTAEGEKLAQESRERHQIVENFLLVLGVSPEIARRDAEGMEHHVSEETLDAFRLFTQKHGAK [P0A9F1] 4.66 h

What value of total protein half-life in vivo has been recorded for this entry: MIEFVYPHTQLVAGVDEVGRGPLVGAVVTAAVILDPARPIAGLNDSKKLSEKRRLALYEEIKEKALSWSLGRAEPHEIDELNILHATMLAMQRAVAGLHIAPEYVLIDGNRCPKLPMPAMAVVKGDSRVPEISAASILAKVTRDAEMAALDIVFPQYGFAQHKGYPTAFHLEKLAEHGATEHHRRSFGPVKRALGLAS 1.19 h

What value of total protein half-life in vivo has been recorded for this entry: MRLTSKGRYAVTAMLDVALNSEAGPVPLADISERQGISLSYLEQLFSRLRKNGLVSSVRGPGGGYLLGKDASSIAVGEVISAVDESVDATRCQGKGGCQGGDKCLTHALWRDLSDRLTGFLNNITLGELVNNQEVLDVSGRQHTHDAPRTRTQDAIDVKLRA [P0AGK8] 1.06 h

---

test: total protein half-life in vivo (active degradation + dilution); higher = more stable protein; details: wild type E. coli NCM3722; growth: C-lim chemostat; doubling time 6 h
OBSERVED_PROPERTY: total protein half-life in vivo (h)
Reply numerically in h, unit not repeated.

See these solved cases before continuing.
>  <RECORD_SEQUENCE>
MSEKSIVQEARDIQLAMELITLGARLQMLESETQLSRGRLIKLYKELRGSPPPKGMLPFSTDWFMTWEQNVHASMFCNAWQFLLKTGLCNGVDAVIKAYRLYLEQCPQAEEGPLLALTRAWTLVRFVESGLLQLSSCNCCGGNFITHAHQPVGSFACSLCQPPSRAVKRRKLSQNPADIIPQLLDEQRVQAV [P0ABY7]

>  <DISPLAY_UNIT>
h

>  <total protein half-life in vivo>
0.52

$$$$
>  <RECORD_SEQUENCE>
MSEMIYGIHAVQALLERAPERFQEVFILKGREDKRLLPLIHALESQGVVIQLANRQYLDEKSDGAVHQGIIARVKPGRQYQENDLPDLIASLDQPFLLILDGVTDPHNLGACLRSADAAGVHAVIVPKDRSAQLNATAKKVACGAAESVPLIRVTNLARTMRMLQEENIWIVGTAGEADHTLYQSKMTGRLALVMGAEGEGMRRLTREHCDELISIPMAGSVSSLNVSVATGICLFEAVRQRS

>  <DISPLAY_UNIT>
h

>  <total protein half-life in vivo>
5.83

$$$$
>  <RECORD_SEQUENCE>
MRVLIVKTSSMGDVLHTLPALTDAQQAIPGIKFDWVVEEGFAQIPSWHAAVERVIPVAIRRWRKAWFSAPIKAERKAFREALQAENYDAVIDAQGLVKSAALVTRLAHGVKHGMDWQTAREPLASLFYNRKHHIAKQQHAVERTRELFAKSLGYSKPQTQGDYAIAQHFLTNLPTDAGEYAVFLHATTRDDKHWPEEHWRELIGLLADSGIRIKLPWGAPHEEERAKRLAEGFAYVEVLPKMSLEGVARVLAGAKFVVSVDTGLSHLTAALDRPNITVYGPTDPGLIGGYGKNQMVCRAPRENLINLNSQAVLEKLSSL

>  <DISPLAY_UNIT>
h

>  <total protein half-life in vivo>
5.73

$$$$
>  <RECORD_SEQUENCE>
MTDYAISKKSKRSLWIPILVFITLAACASAGYSYWHSHQVAADDKAQQRVVPSPVFYALDTFTVNLGDADRVLYIGITLRLKDEATRSRLSEYLPEVRSRLLLLFSRQDAAVLATEEGKKNLIAEIKTTLSTPLVAGQPKQDVTDVLYTAFILR [P0ABX8]

>  <DISPLAY_UNIT>
h

>  <total protein half-life in vivo>
2.16

$$$$
>  <RECORD_SEQUENCE>
MTNQPTEIAIVGGGMVGGALALGLAQHGFAVTVIEHAEPAPFVADSQPDVRISAISAASVSLLKGLGVWDAVQAMRCHPYRRLETWEWETAHVVFDAAELKLPLLGYMVENTVLQQALWQALEAHPKVTLRVPGSLIALHRHDDLQELELKGGEVIRAKLVIGADGANSQVRQMAGIGVHAWQYAQSCMLISVQCENDPGDSTWQQFTPDGPRAFLPLFDNWASLVWYDSPARIRQLQNMNMAQLQAEIAKHFPSRLGYVTPLAAGAFPLTRRHALQYVQPGLALVGDAAHTIHPLAGQGVNLGYRDVDALIDVLVNARSYGEAWASYPVLKRYQMRRMADNFIMQSGMDLFYAGFSNNLPPLRFMRNLGLMAAERAGVLKRQALKYALGL

>  <DISPLAY_UNIT>
h

>  <total protein half-life in vivo>
4.35

$$$$

What value of total protein half-life in vivo has been recorded for this entry: MCGRFAQSQTREDYLALLAEDIERDIPYDPEPIGRYNVAPGTKVLLLSERDEHLHLDPVFWGYAPGWWDKPPLINARVETAATSRMFKPLWQHGRAICFADGWFEWKKEGDKKQPFFIYRADGQPIFMAAIGSTPFERGDEAEGFLIVTAAADQGLVDIHDRRPLVLSPEAAREWMRQEISGKEASEIAASGCVPANQFSWHPVSRAVGNVKNQGAELIQPV 5.39

What value of total protein half-life in vivo has been recorded for this entry: MSSRVLTPDVVGIDALVHDHQTVLAKAEGGVVAVFANNAPAFYAVTPARLAELLALEEKLARPGSDVALDDQLYQEPQAAPVAVPMGKFAMYPDWQPDADFIRLAALWGVALREPVTTEELASFIAYWQAEGKVFHHVQWQQKLARSLQIGRASNGGLPKRDVNTVSEPDSQIPPGFRG [P0A8J2] 3.49

What value of total protein half-life in vivo has been recorded for this entry: MERVSITERPDWREKAHEYGFNFHTMYGEPYWCEDAYYKLTLAQVEKLEEVTAELHQMCLKVVEKVIASDELMTKFRIPKHTWSFVRQSWLTHQPSLYSRLDLAWDGTGEPKLLENNADTPTSLYEAAFFQWIWLEDQLNAGNLPEGSDQFNSLQEKLIDRFVELREQYGFQLLHLTCCRDTVEDRGTIQYLQDCATEAEIATEFLYIDDIGLGEKGQFTDLQDQVISNLFKLYPWEFMLREMFSTKLEDAGVRWLEPAWKSIISNKALLPLLWEMFPNHPNLLPAYFAEDDHPQMEKYVVKPIFSREGANVSIIENGKTIEAAEGPYGEEGMIVQQFHPLPKFGDSYMLIGSWLVNDQPAGIGIREDRALITQDMSRFYPHIFVE [P0ADT5] 5.78

What value of total protein half-life in vivo has been recorded for this entry: MANVEIYTKETCPYCHRAKALLSSKGVSFQELPIDGNAAKREEMIKRSGRTTVPQIFIDAQHIGGCDDLYALDARGGLDPLLK [P0AC62] 5.23

What value of total protein half-life in vivo has been recorded for this entry: MILTDPEWQAVLLSLKVSSLAVLFSLPFGIFFAWLLVRCTFPGKALLDSVLHLPLVLPPVVVGYLLLVSMGRRGFIGERLYDWFGITFAFSWRGAVLAAAVMSFPLMVRAIRLALEGVDVKLEQAARTLGAGRWRVFFTITLPLTLPGIIVGTVLAFARSLGEFGATITFVSNIPGETRTIPSAMYTLIQTPGGESGAARLCIISIALAMISLLISEWLARISRERAGR [P0AF01] 4.97

What value of total protein half-life in vivo has been recorded for this entry: MTSPNILLTRIDNRLVHGQVGVTWTSTIGANLLVVVDDVVANDDIQQKLMGITAETYGFGIRFFTIEKTINVIGKAAPHQKIFLICRTPQTVRKLVEGGIDLKDVNVGNMHFSEGKKQISSKVYVDDQDLTDLRFIKQRGVNVFIQDVPGDQKEQIPD 5.07

What value of total protein half-life in vivo has been recorded for this entry: MGNSDRKPGLIKRLWKWWRTPSRLALGTLLLIGFVGGIVFWGGFNTGMEKANTEEFCISCHEMRNTVYQEYMDSVHYNNRSGVRATCPDCHVPHEFVPKMIRKLKASKELYGKIFGVIDTPQKFEAHRLTMAQNEWRRMKDNNSQECRNCHNFEYMDTTAQKSVAAKMHDQAVKDGQTCIDCHKGIAHKLPDMREVEPGF [P0ABL5] 3.97

Numbers sourced from the supplement of paper PMC11246515.
